All values here come from patent US9862746B2.

Assignment: determine reported Kd for the given molecules.
Biological target: T1, AF9 (497-568) (Homo sapiens, UniProt P42568)
T1 construct: human AF9 (residues 497-568); GB1 (pGB1-LIC vector); made in house; host or cells: Escherichia coli BL21 (DE3)
T1 sequence (P42568 497-568): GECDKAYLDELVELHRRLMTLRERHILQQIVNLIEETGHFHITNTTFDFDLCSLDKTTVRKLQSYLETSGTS
Test: SPR binding of AF9 to immobilized DOT1L constructs
Settings: DOT1L construct immobilized on CM5 sensor chip, read-out: AF9 (497-568) Kd ± SD
Give just the numeric value; nM need not be written.

Query block: Sample DOT1L (826-1095): recombinant DOT1L construct (protein) SPQDPRPLSPGALQLAGEKSSEKGLRERAYGSSGELITSLPISIPLSTVQPNKLPVSIPLASVVLPSRAERARSTPSPVLQPRDPSSTLEKQIGANAHGAGSRSLALAPAGFSYAGSVAISGALAGSPASLTPGAEPATLDESSSSGSLFATVGSRSSTPQHPLLLAQPRNSLPASPAHQLSSSPRLGGAAQGPLPEASKGDLPSDSGFSDPESEAKRRIVFTITTGAGSAKQSPSSKHSPLTASARGDCVPSHGQDSRRRGRRKRASAG — what was its Kd?
Result block: 111

Query block: What does the data say about its Kd? Entry: DOT1L (854-1095): recombinant truncated DOT1L construct (protein) AYGSSGELITSLPISIPLSTVQPNKLPVSIPLASVVLPSRAERARSTPSPVLQPRDPSSTLEKQIGANAHGAGSRSLALAPAGFSYAGSVAISGALAGSPASLTPGAEPATLDESSSSGSLFATVGSRSSTPQHPLLLAQPRNSLPASPAHQLSSSPRLGGAAQGPLPEASKGDLPSDSGFSDPESEAKRRIVFTITTGAGSAKQSPSSKHSPLTASARGDCVPSHGQDSRRRGRRKRASAG
Result block: 135

Query block: Please give the measured Kd for this molecule: DOT1L (925-1095): recombinant truncated DOT1L construct (protein) AGSRSLALAPAGFSYAGSVAISGALAGSPASLTPGAEPATLDESSSSGSLFATVGSRSSTPQHPLLLAQPRNSLPASPAHQLSSSPRLGGAAQGPLPEASKGDLPSDSGFSDPESEAKRRIVFTITTGAGSAKQSPSSKHSPLTASARGDCVPSHGQDSRRRGRRKRASAG
Result block: 1820

Query block: Would you mind telling me what Kd value was observed for DOT1L (826-958): recombinant truncated DOT1L construct (protein) SPQDPRPLSPGALQLAGEKSSEKGLRERAYGSSGELITSLPISIPLSTVQPNKLPVSIPLASVVLPSRAERARSTPSPVLQPRDPSSTLEKQIGANAHGAGSRSLALAPAGFSYAGSVAISGALAGSPASLTP ?
Result block: 92

Query block: // query Kd value for entry DOT1L (826-937): recombinant truncated DOT1L construct (protein) SPQDPRPLSPGALQLAGEKSSEKGLRERAYGSSGELITSLPISIPLSTVQPNKLPVSIPLASVVLPSRAERARSTPSPVLQPRDPSSTLEKQIGANAHGAGSRSLALAPAGF
Result block: 78

Query block: Given the entry DOT1L (854-925): recombinant truncated DOT1L construct, 72 amino acids (protein) AYGSSGELITSLPISIPLSTVQPNKLPVSIPLASVVLPSRAERARSTPSPVLQPRDPSSTLEKQIGANAHGA , report its measured Kd.
Result block: 42
